Every entry's value here was drawn from ChEMBL document CHEMBL4296182.

- Tested on: Acinetobacter baumannii
- ASSAY REMARKS: Antibacterial activity against Acinetobacter baumannii ATCC 19606 (CO-ADD:GN_034); MIC in CAMBH media using NBS plates, by Resazurin F(560/590)
- Format: functional
- RECORDED CONDITIONS: Concentration 20 uM, ASSAY_TEST Inhibition of Bacterial Growth, detection method Resazurin, Fluorescence (ex560/em590), MEDIA CAMHB, plate type 384well, CORNING #3640, time 18 hr
ASSAY ENDPOINT: Inhibition (%)

- O=S(=O)(O)c1ccc(/N=N/c2ccccc2)cc1: 7.18
- O=C(Nc1ccc(NC(=O)c2ccncc2)cc1)c1ccncc1: -1.2
- Sc1nc2ccccc2c2ccccc12: -10.6
- CCC1(CC)C(=O)NC(=S)N=C1N: -4.28
- CC(C)(C)n1nc(C2CC2)cc1NC(=O)Nc1ccccc1: -11.36
- CN1C=C/C(=C/[N+](=O)[O-])N(C)C1=O: -6.18
- CCOC(=O)Cc1cc(=O)[nH]n(-c2ccccc2)c1=O: 4.69
- Cc1nnsc1C(=O)NCc1c(F)cccc1Cl: -1.01
- CCOC(=O)c1cc(-c2ccccc2)nc2ccc(C)cc12: 5.48
- Cc1nc(Br)c(Br)c(C)c1Br: -12.31
- CN(/N=N/c1[nH]cnc1C(=O)NN)C1CCCCC1: 8.54
- Cn1ncc2c(O)nc(N)nc21: -7.72
- CCCCCOc1ccc(N2C(=O)C(C)CNC2=S)cc1 (stereo not given): 8.82
- CCOc1ccc(/C=C2\NC(=S)NC2=O)cc1: -5.71
- COc1cc2c(cc1OC)[N+]([O-])=C(c1ccccc1)C2=O: -5.23
- CCOC(=O)C(=O)Cc1cccnn1: -7.97
- Cc1cc(OCCCCOc2ccc(C#N)cc2)ccc1[N+](=O)[O-]: 6.74
- Nc1n[nH]c(-c2ccccc2)n1: -13.69
- CCOc1ccc(NC(=O)c2cc3ccccc3cc2O)cc1: -4.15
- Nc1nc(O)c2ncn(C3CCCC3)c2n1: -9.23
- c1ccc2c(c1)-c1cccc3cncc-2c13: -2.19
- CC(C)(NC(=O)c1cc(Cl)c2ccccc2c1O)C(=O)O: 5.56
- O=C1c2ccccc2C(=O)C1c1ccccn1: -11.28
- CSc1ncc2ncn(C3OC(CO)C(O)C3O)c2n1 (stereo not given): 9.73
- CCOC(=O)CCC1(C(=O)OC)C(=O)CCCCC/C=C/1C(=O)OC (stereo not given): 9.62
- O=C1c2ccccc2NC(c2cc(Cl)cc(Cl)c2O)N1CCc1ccccn1 (stereo not given): -1.5
- Nc1o[nH]c(=O)c1C1CCCCC1: -3.3
- c1ccc2[nH]c(-c3ccncc3)nc2c1: -5.55
- COc1ccc2c(C)cc(C)nc2n1: -9.69
- C=CCSC(CC)(CC)C(N)=O: -2.06
- CCOC(=O)c1c(C)c(C(=O)OCC)n(C)c1C: 6.43
- Oc1ccccc1-c1nc2c3ccccc3c3ccccc3c2[nH]1: 0.13
- CN(C)CCCn1c2c3ccccc3ccc2c2oc(=O)c3ccccc3c21.Cl: -7.18
- CC(O)c1nc2c(c(=O)n(C)c(=O)n2C)n1C (stereo not given): -6.98
- Nc1ccc(C(=O)Nc2ccc(NC(=O)c3ccco3)c(O)c2)cc1: 0.24
- CC(C)(C)n1nc(C2CC2)cc1NC(=O)Nc1ccc(Cl)cc1: 11.57
- OCCCCc1nccc2c1[nH]c1ccccc12: -7.04
- Cc1ccc(/N=N\c2c(O)ccc3[nH]nnc23)cc1: -9.08
- O=C(O)/C=C/C(=O)N1Cc2cc3ccccc3nc2C1: -0.11
- C=CCOC(=O)/C=C\C(=O)NC(N)=O: -11.84
